# System: Cryptococcus neoformans
# TEST_DESCRIPTION: Antifungal activity against Cryptococcus neoformans after 72 hrs by serial dilution method
# Type: functional
MIC80 values by entry
Form entry: value (µg/mL) — number only.

{"MOLECULE": "Cc1ccc(CN(CCCOc2ccccc2)CC(O)(Cn2cncn2)c2ccc(F)cc2F)cc1 (racemic)", "TEST_RESULT": 4}
{"MOLECULE": "CCCCN(CCCOc1ccc(Br)cc1)CC(O)(Cn1cncn1)c1ccc(F)cc1F (racemic)", "TEST_RESULT": 4}
{"MOLECULE": "CCN(CCCOc1ccc(Br)cc1)CC(O)(Cn1cncn1)c1ccc(F)cc1F (racemic)", "TEST_RESULT": 1}

Entry OC(CN(CCCOc1ccc(Br)cc1)Cc1ccccc1)(Cn1cncn1)c1ccc(F)cc1F (racemic) — recorded MIC80 = 16

Entry CCOC(=O)CN(CCCOc1ccccc1)CC(O)(Cn1cncn1)c1ccc(F)cc1F (racemic) — recorded MIC80 = 8

Entry OC(CN(CCCOc1ccccc1)Cc1ccc(F)cc1)(Cn1cncn1)c1ccc(F)cc1F (racemic) — recorded MIC80 = 8
